pIC50: −log10 of the molar value.
Below are pIC50 values measured for PIK3CA (human) (UniProt P42336).

>>> result("N#CCCc1nccn1-c1nc(-c2cnc(N)nc2)nc(N2CCOCC2)n1")
"> 6.00"

Task: Write down the reported pIC50 of O=C(O)c1cc2ccccc2n1-c1nc(-c2cccc3[nH]ccc23)nc(N2CCOCC2)n1 , test system: PIK3CA (human) (UniProt P42336).
Sequence (P42336 whole entry, looked up): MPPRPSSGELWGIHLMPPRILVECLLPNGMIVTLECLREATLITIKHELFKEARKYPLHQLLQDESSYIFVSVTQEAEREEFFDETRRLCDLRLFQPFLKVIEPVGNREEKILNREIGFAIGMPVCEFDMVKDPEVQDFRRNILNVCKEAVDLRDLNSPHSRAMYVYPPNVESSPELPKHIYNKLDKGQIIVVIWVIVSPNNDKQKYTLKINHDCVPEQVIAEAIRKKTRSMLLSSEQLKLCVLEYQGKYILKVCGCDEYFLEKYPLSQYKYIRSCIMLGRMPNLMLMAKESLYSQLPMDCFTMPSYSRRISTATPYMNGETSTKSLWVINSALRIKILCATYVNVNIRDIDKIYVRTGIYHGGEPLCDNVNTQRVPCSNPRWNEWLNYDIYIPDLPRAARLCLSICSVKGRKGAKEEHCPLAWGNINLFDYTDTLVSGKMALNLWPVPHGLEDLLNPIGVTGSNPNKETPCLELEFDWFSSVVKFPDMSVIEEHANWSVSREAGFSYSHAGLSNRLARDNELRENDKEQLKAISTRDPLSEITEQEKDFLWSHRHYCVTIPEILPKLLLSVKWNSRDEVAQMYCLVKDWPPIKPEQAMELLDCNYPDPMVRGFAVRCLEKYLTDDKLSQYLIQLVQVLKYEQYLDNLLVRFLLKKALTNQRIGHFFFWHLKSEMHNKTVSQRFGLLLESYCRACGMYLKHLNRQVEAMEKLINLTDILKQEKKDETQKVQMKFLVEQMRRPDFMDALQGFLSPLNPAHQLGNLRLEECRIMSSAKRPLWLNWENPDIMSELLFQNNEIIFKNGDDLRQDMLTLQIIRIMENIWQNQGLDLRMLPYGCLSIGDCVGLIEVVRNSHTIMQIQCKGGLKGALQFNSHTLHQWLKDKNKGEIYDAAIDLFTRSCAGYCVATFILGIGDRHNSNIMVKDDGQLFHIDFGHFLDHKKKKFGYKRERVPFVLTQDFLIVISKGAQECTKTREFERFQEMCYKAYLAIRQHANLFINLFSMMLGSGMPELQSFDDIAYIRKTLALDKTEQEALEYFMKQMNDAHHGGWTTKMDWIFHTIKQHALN
Output: > 6.00

Task: Write down the reported pIC50 of CCc1nc2ccccc2n1-c1nc(-c2cccc3[nH]ccc23)nc(N2CCOCC2)n1 , test system: PIK3CA (human) (UniProt P42336).
Output: > 6.00

Task: Write down the reported pIC50 of CCCCN(C)Cc1c(C)nc(CC)n1-c1nc(-c2cccc3[nH]ccc23)nc(N2CCOCC2)n1 , test system: PIK3CA (human) (UniProt P42336).
Output: > 6.00

Task: Write down the reported pIC50 of COCCNCc1cn(-c2nc(-c3cccc4[nH]ccc34)nc(N3CCOCC3)n2)c(C)n1 , test system: PIK3CA (human) (UniProt P42336).
Output: > 6.00
